# PROTOCOL_SUMMARY: Plasma concentrations in the apomorphine challenge study
# Format: in vivo, human
# CONDITION_DESCRIPTION: human, plasma, intravenous; 90 mg, apomorphine challenge 2 h after dose, N = 5; read-out: Conc. at challenge
READOUT_NAME: concentration at 2 h (ng/mL)

• Cc1ccccc1-c1cc(N2CCN(C)CC2)ncc1C(=O)N(C)Cc1cc(C(F)(F)F)cc(C(F)(F)F)c1 [Compound of Formula (I) 2HCl (R1 = CH3)] = 356

====

# PROTOCOL_SUMMARY: Plasma concentrations in the apomorphine challenge study
# Format: in vivo, human
# CONDITION_DESCRIPTION: human, plasma, intravenous, 90 mg, healthy volunteers, apomorphine challenge; read-out: minimum initial peak level (Cmax) at infusion to obtain efficacious levels / central NK1 blockade
READOUT_NAME: Cmax

* Cc1ccccc1-c1cc(N2CCN(C)CC2)ncc1C(=O)N(C)Cc1cc(C(F)(F)F)cc(C(F)(F)F)c1 [Compound of Formula (I) 2HCl (R1 = CH3)] | 1000 to 1300 ng/mL

====

# PROTOCOL_SUMMARY: Plasma concentrations in the apomorphine challenge study
# Type: in vivo, human
# CONDITION_DESCRIPTION: human, plasma, intravenous, 90 mg, apomorphine challenge 2 h after dose, N = 5; read-out: Cmax at end of infusion
READOUT_NAME: Cmax (ng/mL)

• Cc1ccccc1-c1cc(N2CCN(C)CC2)ncc1C(=O)N(C)Cc1cc(C(F)(F)F)cc(C(F)(F)F)c1 [Compound of Formula (I) 2HCl (R1 = CH3)] = 1040
